target: human Epidermal Growth Factor Receptor (EGFR), EGFR (gene 1956); test: NVS_ENZ_hEGFR: NovaScreen (NVS) Enzymatic Assay for human Epidermal Growth Factor Receptor (EGFR) (AID 2283151)
Results filed as inconclusive are left out. Activity calls are given as the source filed them. How the source made its calls: active means hit-call score of the fitted dose curve at least 0.9, where 1 is the maximum; inconclusive means response in the unintended direction; inactive means score below 0.9.
Write down one outcome, taken from active, inactive

q: Which outcome was entered for the compound NCCO in this test?
a: inactive

q: Short answer needed: outcome of this test for COc1cc(C(=O)NC2CCN(C)CC2)ccc1Nc1ncc2c(n1)N(C1CCCC1)CC(F)(F)C(=O)N2C ?
a: active

q: I'd appreciate the recorded outcome for CCc1c(C(=O)NN2CCCCC2)nn(-c2ccc(Cl)cc2Cl)c1-c1ccc(Br)cc1 from this test.
a: inactive

q: Which outcome was assigned to O=c1[nH]cnc2c1ncn2[C@H]1CC[C@@H](CO)O1 in this test?
a: inactive

q: Which outcome was assigned to CN(C)C(=O)NC1(c2ccccc2)CCN(CCC[C@]2(c3ccc(Cl)c(Cl)c3)CCCN(C(=O)c3ccccc3)C2)CC1 in this test?
a: inactive
